Quick list: normalised viability per entry.
# Test system: CAL-85-1
# procedure.text: normalised viability (% of control), CellTiter-Blue; higher = more viable cells (about 100 = DMSO control)
# reported.conditions: 3 nM; incubation time: 72 h
measurement.type: normalised viability (%)

In [3]: df
Out[3]:
                                   compound  measurement
0  O=C1c2c(O)ccc(O)c2C(=O)c2c(NCCNCCO)ccc(NCCNCCO)c21 [Mitoxantrone]         84.3
1  Nc1ccccc1NC(=O)c1ccc(CNc2nccc(-c3cccnc3)n2)cc1 [Mocetinostat]         93.3
2  COc1ccc(-c2cc3c(C)nc(N)nc3n([C@H]3CC[C@H](OCCO)CC3)c2=O)cn1          102
3  O=C(Nc1c[nH]nc1-c1nc2ccc(CN3CCOCC3)cc2[nH]1)NC1CC1 [AT9283]         89.8

---

// normalised response lookup, one value per entry
# Test system: BT-474
# procedure.text: normalised response (% of control), CellTiter-Glo; higher = more viable cells (100 = DMSO, 0 = benzethonium chloride kill control)
# reported.conditions: incubation time: 72 h
measurement.type: normalised response (%)

>>> print(df.to_string())
                                   compound  units  measurement
0  O=C(Nc1c[nH]nc1-c1nc2ccc(CN3CCOCC3)cc2[nH]1)NC1CC1 [AT9283] (10 nM)      %         93.8
1  CC(=O)OC[C@H]1O[C@@H]([S-])[C@H](OC(C)=O)[C@@H](OC(C)=O)[C@@H]1OC(C)=O.CCP(CC)CC.[Au+] [Auranofin] (25 nM)      %         96.8
2  CNC(=O)c1cc(Oc2ccc(NC(=O)Nc3ccc(Cl)c(C(F)(F)F)c3)cc2)ccn1 [Sorafenib] (10 nM)      %         97.8
3  CC[C@@]1(O)C(=O)OCc2c1cc1n(c2=O)Cc2cc3c(CN(C)C)c(O)ccc3nc2-1 [Topotecan] (100 nM)      %         91.9

---

# System: CAL-148
# procedure.text: drug sensitivity score (DSS), CellTox Green (DSS (AUC-based score)); higher = stronger drug effect (viability inhibition or cytotoxicity); extreme values may be limits of the assay
# reported.conditions: incubation time: 72 h
measurement.type: drug sensitivity score

                                 smiles_str  measurement
0  CS(=O)(=O)N1CCN(Cc2cc3nc(-c4cccc5[nH]ncc45)nc(N4CCOCC4)c3s2)CC1         9.53
1  O=C1c2c(O)ccc(O)c2C(=O)c2c(NCCNCCO)ccc(NCCNCCO)c21         3.55
2  COc1ccc(-c2cc3c(C)nc(N)nc3n([C@H]3CC[C@H](OCCO)CC3)c2=O)cn1         12.3
3              O=C(CCBr)N1CCN(C(=O)CCBr)CC1            0
4  CO[C@@H](C(=O)N1Cc2[nH]nc(NC(=O)c3ccc(N4CCN(C)CC4)cc3)c2C1)c1ccccc1            0

---

# Test system: HCC1143
# procedure.text: drug sensitivity score (DSS), CellTiter-Blue viability (DSS (AUC-based score)); higher = stronger viability inhibition; extreme values may be limits of the assay
# reported.conditions: incubation time: 72 h
Entries and their drug sensitivity score
measurement.type: drug sensitivity score

In [3]: df
Out[3]:
                                   molecule  measurement
0  Nc1cccc2c1CN(C1CCC(=O)NC1=O)C2=O (stereo not drawn) [Lenalidomide]            0
1  Cc1c(CN2CCN(C(=O)[C@H](C)O)CC2)sc2c(N3CCOCC3)nc(-c3cnc(N)nc3)nc12         15.9
2  C[C@]12O[C@H](C[C@]1(O)CO)n1c3ccccc3c3c4c(c5c6ccccc6n2c5c31)CNC4=O         3.46
